Target Entity: Fuc(a1-2)[Gal(a1-3)]Gal(b1-4)GlcNAc(b1-6)GalNAc
Test Name: glycan array binding signal (z-score within array); higher = stronger binding
Measurement Context: glycan notation: IUPAC condensed, linker removed
Shown is part of a subset that was picked to be rich in the strongest signals.
Please mark criterion met if the recorded glycan array binding signal (z-score) is equal to or greater than -0.2, and criterion not met if it falls below.

Threshold query (glycan array binding signal (z-score) >= -0.2) on CAA (Caragana arborescens) (protein) VAVEFDTFDNPDWDPRTKHIGIDVNSIRSNKTTQWGFWNRQVADVDISYEASSKTLNVSLYYPGESYIVTDVVDLKDILPEWVRIGF criterion not met

And for Gal-9-hFc (Mus musculus), O08573-2 (protein) MALFSAQSPYINPIIPFTGPIQGGLQEGLQVTLQGTTKSFAQRFVVNFQNSFNGNDIAFHFNPRFEEGGYVVCNTKQNGQWGPEERKMQMPFQKGMPFELCFLVQRSEFKVMVNKKFFVQYQHRVPYHLVDTIAVSGCLKLSFITFQTQNFRPAHQAPMAQTTIHMVHSTPGQMFSTPGIPPVVYPTPAYTIPFYTPIPNGLYPSKSIMISGNVLPDATRFHINLRCGGDIAFHLNPRFNENAVVRNTQINNSWGQEERSLLGRMPFSRGQSFSVWIICEGHCFKVAVNGQHMCEYYHRLKNLQDINTLEVAGDIQLTHVQT ? criterion met

And for Jacalin (Artocarpus integrifolia) (protein) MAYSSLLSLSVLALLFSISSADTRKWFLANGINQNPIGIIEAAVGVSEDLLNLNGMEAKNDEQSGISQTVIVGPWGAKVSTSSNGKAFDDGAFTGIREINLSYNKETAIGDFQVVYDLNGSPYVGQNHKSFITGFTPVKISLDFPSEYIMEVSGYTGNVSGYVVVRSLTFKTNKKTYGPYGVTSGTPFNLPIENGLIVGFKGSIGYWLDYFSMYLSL ? criterion not met

And for Cohesin-hMARCO (Homo sapiens) (protein) LDDLDAVRIKVDTVNAKPGDTVRIPVRFSGIPSKGIANCDFVYSYDPNVLEIIEIEPGDIIVDPNPDKSFDTAVYPDRKIIVFLFAEDSGTGAYAITKDGVFATIVAKVKEGAPNGLSVIKFVEVGGFANNDLVEQKTQFFDGGANVGDTTEPATPTTPVTTPTTTDDLDAASVRIVGSSNRGRAEVYYSGTWGTICDDEWQNSDAIVFCRMLGYSKGRALYKVGAGTGQIWLDNVQCRGTESTLWSCTKNSWGHHDCSHEEDAGVECSVHHHHHH ? criterion not met

And for Gal 10 (Homo sapiens), Q05315 (protein) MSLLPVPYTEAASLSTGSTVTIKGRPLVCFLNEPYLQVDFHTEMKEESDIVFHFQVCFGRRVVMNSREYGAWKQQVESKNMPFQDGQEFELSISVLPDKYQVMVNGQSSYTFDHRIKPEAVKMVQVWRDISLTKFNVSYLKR ? criterion met

And for MGL6A (Homo sapiens) (protein) MTRTYENFQYLENKVKVQGFKNGPLPLQSLLQRLCSGPCHLLLSLGLGLLLLVIICVVGFQNSKFQRDLVTLRTDFSNFTSNTVAEIQALTSQGSSLEETIASLKAEVEGFKQERQAVHSEMLLRVQQLVQDLKKLTCQVATLNNNGEEASTEGTCCPVNWVEHQDSCYWFSHSGMSWAEAEKYCQLKNAHLVVINSREEQNFVQKYLGSAYTWMGLSDPEGAWKWVDGTDYATGFQNWKPGQPDDWQGHGLGGGEDCAHFHPDGRWNDDVCQRPYHWVCEAGLGQTSQESH ? criterion not met

And for Mermaid3 (Stilbonema majum) (protein) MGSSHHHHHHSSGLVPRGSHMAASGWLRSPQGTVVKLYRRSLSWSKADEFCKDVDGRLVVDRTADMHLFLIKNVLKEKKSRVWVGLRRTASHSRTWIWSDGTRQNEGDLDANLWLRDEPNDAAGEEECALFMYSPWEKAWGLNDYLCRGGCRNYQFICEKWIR ? criterion not met
